system: LXRa homodimer (NR concentration 270 nM); experiment: PBM binding z-score (relative to random genomic background probes); higher = stronger binding; sequences stand for … in GC…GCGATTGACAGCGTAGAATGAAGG
Please use Satisfied whenever PBM binding z-score is not below 0.2, and Not satisfied whenever it is.

>>> label("ATCTCTAGGTAAGCAAGTTCAGTGAATGCCGAAC")
"Satisfied"
>>> label("CCTACTGGGCCTTCAGGTCATTGATATCAACGTT")
"Satisfied"
>>> label("AGAATGAGGTTATACGTAAATCAGGGAAGAAAGT")
"Satisfied"
>>> label("CCTACTGGGCCACGAACGGTCATTGATTCAGTGA")
"Satisfied"
>>> label("TGACCAAGGTGAAGGTCGTTGATCCCTCTGTAGA")
"Not satisfied"
>>> label("GCGACTGGGGCGTCAGCAGGTTACCATAACTTAA")
"Not satisfied"
>>> label("CCTTACGCGTCAAGGTTATAGCACGGGTGGTACG")
"Not satisfied"
>>> label("ATCGAAAGGTCGACTAGGTGAGTATACACCGTTT")
"Satisfied"
>>> label("GCGACTGGGGCATCAGCAGGTTGCCATAACTTAA")
"Not satisfied"
>>> label("TCTCGGAGGACTCGAAAGGTCAGAGCTCGACATC")
"Satisfied"
>>> label("TCGAGTAGGTTAGTCGGGTCATTCAGCCAACATA")
"Satisfied"
>>> label("ATCGCTAGGTAACCAAGTTCAGTGAATGCCGAAC")
"Not satisfied"
>>> label("CGTACTGGGCCAAAGGTCATTGATTCCAATGCTC")
"Satisfied"

These entries and their values trace back to the supplement of paper PMC6555819.
